measured target: BACE1 (Homo sapiens)
Construct: Human HEK293 cells which are stably transfected with a vector expressing a cDNA of the human APP wt gene (APP695); endogenous in cells; host or cells: HEK293 (human), stably transfected with human APP695 wt cDNA
Sequence (P56817 46-501): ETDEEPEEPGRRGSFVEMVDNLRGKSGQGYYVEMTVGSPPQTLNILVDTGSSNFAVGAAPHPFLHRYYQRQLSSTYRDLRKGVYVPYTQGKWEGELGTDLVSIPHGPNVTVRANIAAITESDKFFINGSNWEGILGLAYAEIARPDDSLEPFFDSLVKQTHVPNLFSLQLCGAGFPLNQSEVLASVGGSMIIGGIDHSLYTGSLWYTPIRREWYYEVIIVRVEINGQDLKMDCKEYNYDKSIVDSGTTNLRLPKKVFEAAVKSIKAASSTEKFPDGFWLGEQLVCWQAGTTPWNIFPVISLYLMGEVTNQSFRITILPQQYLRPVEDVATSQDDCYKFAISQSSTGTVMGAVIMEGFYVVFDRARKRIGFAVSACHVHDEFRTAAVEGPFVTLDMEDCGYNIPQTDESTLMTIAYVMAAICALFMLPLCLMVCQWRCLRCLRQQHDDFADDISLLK
experimental details: Cellular Aβ-lowering assay (Aβ40 ELISA of culture supernatant)
Format: cell-based
condition set: exosite motifs alone; HEK293 cells stably transfected with human APP wt (APP695); Aβ40 in supernatant; read-out: IC 50
pIC50: −log10 of the molar value.
measured property: pIC50

IN: Dear colleague, I am looking for the recorded pIC50 of the following sequence: YQTFKPANGS [Example E2, exosite motif peptide tested alone]
OUT: < 4.40
